# ASSAY_COMMENT: PK study of SM components in plasma of AIA rats by UPLC-MS/MS (MG vs MPS group)
# REPORTED_CONDITIONS: MPS group: AIA rats, oral PS 9.8 g crude drug/kg/day 21 days, then oral SM 39.2 g crude drug/kg; plasma; mean ± SEM
Recorded C max, one value per entry.
Answer with a number only, understood to be in ng/mL.

Worked examples, 2 compounds total:
COMPOUND	READOUT_KIND	DISPLAY_UNIT	MEASUREMENT
COC[C@@]12CC[C@H](OC)[C@]34C([C@H]([C@H](OC)[C@H]13)[C@]1(O)[C@H]3[C@@H](OC(=O)c5ccccc5)[C@](O)(C[C@H]34)[C@@H](OC)[C@@H]1O)N(C)C2 [Benzoylhypaconine]	C max	ng/mL	0.861
O=C1C[C@@H](c2ccc(O)cc2)Oc2cc(O)ccc21 [Liquiritigenin]	C max	ng/mL	23.367

Read the next record carefully.
For O=C1C[C@@H](c2ccc(O[C@@H]3O[C@H](CO)[C@@H](O)[C@H](O)[C@H]3O)cc2)Oc2cc(O)ccc21 [Liquiritin] , what is its reported C max? 190.023

====

# ASSAY_COMMENT: PK study of SM components in plasma of AIA rats by UPLC-MS/MS (MG vs MPS group)
# REPORTED_CONDITIONS: MG group: AIA rats, saline 21 days, then oral SM 39.2 g crude drug/kg; plasma; mean ± SEM
We begin with a simple list: items and their reported AUC 0-∞.
Express your answer in ng·h/mL, writing the number without its unit.

These solved cases illustrate the format of a correct answer.
COMPOUND	DISPLAY_UNIT	AUC 0-∞
COC[C@@]12CC[C@H](OC)[C@]34C([C@H]([C@H](OC)[C@H]13)[C@]1(O)[C@H]3[C@@H](OC(=O)c5ccccc5)[C@](O)(C[C@H]34)[C@@H](OC)[C@@H]1O)N(C)C2	ng·h/mL	1.123
C[C@]12C[C@@H](O)[C@@H]3C[C@@]1(O[C@@H]1O[C@H](CO)[C@@H](O)[C@H](O)[C@H]1O)[C@@]3(COC(=O)c1ccccc1)C(=O)O2	ng·h/mL	458.506

I am curious: what AUC 0-∞ value has been reported for COc1ccc(-c2coc3cc(O[C@@H]4O[C@H](CO)[C@@H](O)[C@H](O)[C@H]4O)ccc3c2=O)cc1O [Calycosin-7-glycoside] ? 18.097
